system: HeLa Kyoto; experiment: solubility change mitosis vs G1/S (difference of NP-40 vs SDS log2 ratios) (log2 ratio difference); higher = more soluble in mitosis
Measured solubility change mitosis (log2), listed per entry.
No unit in the answer, only the number.

>  <substance>
CASKIN2

>  <obs_value>
-0.0911

$$$$
>  <substance>
MALLFARSLRLCRWGAKRLGVASTEAQRGVSFKLEEKTAHSSLALFRDDTGVKYGLVGLEPTKVALNVERFREWAVVLADTAVTSGRHYWEVTVKRSQQFRIGVADVDMSRDSCIGVDDRSWVFTYAQRKWYTMLANEKAPVEGIGQPEKVGLLLEYEAQKLSLVDVSQVSVVHTLQTDFRGPVVPAFALWDGELLTHSGLEVPEGL [SPRYD4]

>  <obs_value>
-0.14

$$$$
>  <substance>
MSELEQLRQEAEQLRNQIQDARKACNDATLVQITSNMDSVGRIQMRTRRTLRGHLAKIYAMHWGYDSRLLVSASQDGKLIIWDSYTTNKMHAIPLRSSWVMTCAYAPSGNYVACGGLDNICSIYNLKTREGNVRVSRELPGHTGYLSCCRFLDDSQIVTSSGDTTCALWDIETAQQTTTFTGHSGDVMSLSLSPDMRTFVSGACDASSKLWDIRDGMCRQSFTGHVSDINAVSFFPNGYAFATGSDDATCRLFDLRADQELLLYSHDNIICGITSVAFSKSGRLLLAGYDDFNCNVWDTLKGDRAGVLAGHDNRVSCLGVTDDGMAVATGSWDSFLRIWN [GNB4]

>  <obs_value>
-0.13

$$$$

Consider now this further substance.
# substance MRKPDSKIVLLGDMNVGKTSLLQRYMERRFPDTVSTVGGAFYLKQWRSYNISIWDTAGREQFHGLGSMYCRGAAAIILTYDVNHRQSLVELEDRFLGLTDTASKDCLFAIVGNKVDLTEEGALAGQEKEECSPNMDAGDRVSPRAPKQVQLEDAVALYKKILKYKMLDEQDVPAAEQMCFETSAKTGYNVDLLFETLFDLVVPMILQQRAERPSHTVDISSHKPPKRTRSGCCA [RAB20] ; its solubility change mitosis (log2) = -0.187

====

test system: HeLa Kyoto; assay: thermal stability score vs G1/S (z-score of summed log2 fold changes over temperatures); higher = more thermally stable than in G1/S; settings: cell cycle stage: early G1 (4.5 h after nocodazole release)
outcome_measure: thermal stability score
Respond numerically, and do not add a unit to the figure.

>  <record_sequence>
MSYGRPPPDVEGMTSLKVDNLTYRTSPDTLRRVFEKYGRVGDVYIPRDRYTKESRGFAFVRFHDKRDAEDAMDAMDGAVLDGRELRVQMARYGRPPDSHHSRRGPPPRRYGGGGYGRRSRSPRRRRRSRSRSRSRSRSRSRSRYSRSKSRSRTRSRSRSTSKSRSARRSKSKSSSVSRSRSRSRSRSRSRSPPPVSKRESKSRSRSKSPPKSPEEEGAVSS [SRSF2]

>  <outcome_measure>
thermal stability score

>  <obs_value>
-2.71

$$$$

So for MAAERGAGQQQSQEMMEVDRRVESEESGDEEGKKHSSGIVADLSEQSLKDGEERGEEDPEEEHELPVDMETINLDRDAEDVDLNHYRIGKIEGFEVLKKVKTLCLRQNLIKCIENLEELQSLRELDLYDNQIKKIENLEALTELEILDISFNLLRNIEGVDKLTRLKKLFLVNNKISKIENLSNLHQLQMLELGSNRIRAIENIDTLTNLESLFLGKNKITKLQNLDALTNLTVLSMQSNRLTKIEGLQNLVNLRELYLSHNGIEVIEGLENNNKLTMLDIASNRIKKIENISHLTELQEFWMNDNLLESWSDLDELKGARSLETVYLERNPLQKDPQYRRKVMLALPSVRQIDATFVRF [PPP1R7] , the logged thermal stability score turned out to be -1.16

# sequence MDAAEVEFLAEKELVTIIPNFSLDKIYLIGGDLGPFNPGLPVEVPLWLAINLKQRQKCRLLPPEWMDVEKLEKMRDHERKEETFTPMPSPYYMELTKLLLNHASDNIPKADEIRTLVKDMWDTRIAKLRVSADSFVRQQEAHAKLDNLTLMEINTSGTFLTQALNHMYKLRTNLQPLESTQSQDF [GINS2] ; its thermal stability score = -1.69

Record MDVFLMIRRHKTTIFTDAKESSTVFELKRIVEGILKRPPDEQRLYKDDQLLDDGKTLGECGFTSQTARPQAPATVGLAFRADDTFEALCIEPFSSPPELPDVMKPQDSGSSANEQAVQ [TCEB2] . Reported thermal stability score: 1.2

sequence MAAAEEGCSVGAEADRELEELLESALDDFDKAKPSPAPPSTTTAPDASGPQKRSPGDTAKDALFASQEKFFQELFDSELASQATAEFEKAMKELAEEEPHLVEQFQKLSEAAGRVGSDMTSQQEFTSCLKETLSGLAKNATDLQNSSMSEEELTKAMEGLGMDEGDGEGNILPIMQSIMQNLLSKDVLYPSLKEITEKYPEWLQSHRESLPPEQFEKYQEQHSVMCKICEQFEAETPTDSETTQKARFEMVLDLMQQLQDLGHPPKELAGEMPPGLNFDLDALNLSGPPGASGEQCLIM [G3V3G9|DCAF8] , thermal stability score observed: 0.212

Lookup result for MAATRSPTRARERERSGAPAAGSDQVHSWMLATSQALDTVWRMAKGFVMLAVSFLVAAICYFRRLHLYSGHKLKWWIGYLQRKFKRNLSVEAEVDLLSYCAREWKGETPRNKLMRKAYEELFWRHHIKCVRQVRRDNYDALRSVLFQIFSQGISFPSWMKEKDIVKLPEKLLFSQGCNWIQQYSFGPEKYTGSNVFGKLRKYVELLKTQWTEFNGIRDYHKRGSMCNTLFSDAILEYKLYEALKFIMLYQVTEVYEQMKTKKVIPSLFRLLFSRETSSDPLSFMMNHLNSVGDTCGLEQIDMFILGYSLEVKIKVFRLFKFNSRDFEVCYPEEPLRDWPEISLLTENDRHYHIPVF [FAM105A] ; measured thermal stability score: -0.702

get_value(item= MDVLAEANGTFALNLLKTLGKDNSKNVFFSPMSMSCALAMVYMGAKGNTAAQMAQILSFNKSGGGGDIHQGFQSLLTEVNKTGTQYLLRMANRLFGEKSCDFLSSFRDSCQKFYQAEMEELDFISAVEKSRKHINTWVAEKTEGKIAELLSPGSVDPLTRLVLVNAVYFRGNWDEQFDKENTEERLFKVSKNEEKPVQMMFKQSTFKKTYIGEIFTQILVLPYVGKELNMIIMLPDETTDLRTVEKELTYEKFVEWTRLDMMDEEEVEVSLPRFKLEESYDMESVLRNLGMTDAFELGKADFSGMSQTDLSLSKVVHKSFVEVNEEGTEAAAATAAIMMMRCARFVPRFCADHPFLFFIQHSKTNGILFCGRFSSP [SERPINB6] , readout=thermal stability score) returns -1.49

// field: thermal stability score; key: MDSFNYTTPDYGHYDDKDTLDLNTPVDKTSNTLRVPDILALVIFAVVFLVGVLGNALVVWVTAFEAKRTINAIWFLNLAVADFLSCLALPILFTSIVQHHHWPFGGAACSILPSLILLNMYASILLLATISADRFLLVFKPIWCQNFRGAGLAWIACAVAWGLALLLTIPSFLYRVVREEYFPPKVLCGVDYSHDKRRERAVAIVRLVLGFLWPLLTLTICYTFILLRTWSRRATRSTKTLKVVVAVVASFFIFWLPYQVTGIMMSFLEPSSPTFLLLKKLDSLCVSFAYINCCINPIIYVVAGQGFQGRLRKSLPSLLRNVLTEESVVRESKSFTRSTVDTMAQKTQAV [C5AR1] ; value = -2.16

Notebook: MEQLSSANTRFALDLFLALSENNPAGNIFISPFSISSAMAMVFLGTRGNTAAQLSKTFHFNTVEEVHSRFQSLNADINKRGASYILKLANRLYGEKTYNFLPEFLVSTQKTYGADLASVDFQHASEDARKTINQWVKGQTEGKIPELLASGMVDNMTKLVLVNAIYFKGNWKDKFMKEATTNAPFRLNKKDRKTVKMMYQKKKFAYGYIEDLKCRVLELPYQGEELSMVILLPDDIEDESTGLKKIEEQLTLEKLHEWTKPENLDFIEVNVSLPRFKLEESYTLNSDLARLGVQDLFNSSKADLSGMSGARDIFISKIVHKSFVEVNEEGTEAAAATAGIATFCMLMPEENFTADHPFLFFIRHNSSGSILFLGRFSSP [SERPINB1] , thermal stability score read as 1.35

Sample MEGISNFKTPSKLSEKKKSVLCSTPTINIPASPFMQKLGFGTGVNVYLMKRSPRGLSHSPWAVKKINPICNDHYRSVYQKRLMDEAKILKSLHHPNIVGYRAFTEANDGSLCLAMEYGGEKSLNDLIEERYKASQDPFPAAIILKVALNMARGLKYLHQEKKLLHGDIKSSNVVIKGDFETIKICDVGVSLPLDENMTVTDPEACYIGTEPWKPKEAVEENGVITDKADIFAFGLTLWEMMTLSIPHINLSNDDDDEDKTFDESDFDDEAYYAALGTRPPINMEELDESYQKVIELFSVCTNEDPKDRPSAAHIVEALETDV [PBK] ; thermal stability score observed: 1.05
